- testedOn: CYP2C9 (Homo sapiens, UniProt P11712)
- Sequence (P11712 whole entry): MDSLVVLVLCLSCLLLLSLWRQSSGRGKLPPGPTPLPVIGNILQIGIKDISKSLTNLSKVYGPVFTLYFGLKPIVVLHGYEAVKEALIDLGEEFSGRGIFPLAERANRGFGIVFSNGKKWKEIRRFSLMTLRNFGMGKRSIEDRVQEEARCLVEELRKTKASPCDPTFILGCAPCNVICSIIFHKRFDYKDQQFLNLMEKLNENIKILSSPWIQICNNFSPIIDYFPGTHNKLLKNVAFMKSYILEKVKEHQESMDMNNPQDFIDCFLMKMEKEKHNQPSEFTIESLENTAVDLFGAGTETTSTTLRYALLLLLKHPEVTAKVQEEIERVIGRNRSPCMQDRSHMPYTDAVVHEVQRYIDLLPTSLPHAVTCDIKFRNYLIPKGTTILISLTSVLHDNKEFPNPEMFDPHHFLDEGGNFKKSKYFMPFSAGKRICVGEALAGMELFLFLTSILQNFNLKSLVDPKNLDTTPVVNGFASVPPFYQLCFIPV
- experiment: Inhibition of CYP2C9 at 10 uM
- Assay type: ADME
valueKind: inhibition at 10 µM (%)
Reply numerically in %, unit not repeated.

For CCc1ccc(C(=O)NC(=O)c2ccccc2O)cc1 the compound record lists inhibition at 10 µM as 71

----------
Exercise: for every item that follows, state its recorded fraction unbound.
- experiment: Plasma protein binding in human
- Assay type: ADME, cell-free
- conditionContext: read-out: PPB (converted)
Response field accepts a number only; no unit should be typed.

For OC(Cn1cncn1)(Cn1cncn1)c1ccc(F)cc1F the compound record lists fraction unbound as 0.763

For CCc1ccc(C(=O)NC(=O)c2ccccc2O)cc1 the compound record lists fraction unbound as 0.001

----------
- testedOn: CYP2D6 (Homo sapiens)
- Sequence (P10635 whole entry): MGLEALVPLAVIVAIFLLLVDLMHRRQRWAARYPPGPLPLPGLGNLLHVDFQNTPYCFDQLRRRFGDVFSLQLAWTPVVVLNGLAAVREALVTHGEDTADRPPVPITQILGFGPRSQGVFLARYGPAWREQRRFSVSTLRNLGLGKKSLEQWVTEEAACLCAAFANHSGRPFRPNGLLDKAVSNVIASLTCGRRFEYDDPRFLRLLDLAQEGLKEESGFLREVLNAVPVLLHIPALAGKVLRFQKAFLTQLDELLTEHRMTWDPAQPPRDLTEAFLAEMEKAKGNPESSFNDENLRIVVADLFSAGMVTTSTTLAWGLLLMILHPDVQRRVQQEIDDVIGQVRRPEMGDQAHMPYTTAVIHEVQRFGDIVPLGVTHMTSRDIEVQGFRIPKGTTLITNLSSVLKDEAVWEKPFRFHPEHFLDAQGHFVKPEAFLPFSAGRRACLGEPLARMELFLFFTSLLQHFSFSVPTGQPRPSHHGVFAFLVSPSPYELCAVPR
- experiment: Inhibition of CYP2D6 at 10 uM
- Assay type: ADME
valueKind: inhibition at 10 µM (%)
Reply numerically in %, unit not repeated.

For CCc1ccc(C(=O)NC(=O)c2ccccc2O)cc1 the compound record lists inhibition at 10 µM as 71

----------
- experiment: Aqueous solubility of the compound in phosphate based buffer at pH 7.4
- Format: physicochemical
valueKind: solubility (µM)
Reply numerically in µM, unit not repeated.

For CCc1ccc(C(=O)NC(=O)c2ccccc2O)cc1 the compound record lists solubility as 50.8

----------
Exercise: for every item that follows, state its recorded selectivity ratio.
- experiment: Selectivity index, ratio of IC50 for rat L6 cells to IC50 for intracellular amastigote stage of Trypanosoma cruzi Tulahuen C2C4
- Format: toxicity, cell-based
- conditionContext: read-out: Ratio IC50
Response field accepts a number only; no unit should be typed.

For O=C(NC(=O)c1ccccc1O)c1ccccc1O the molecule record lists selectivity ratio as 2.8

For COc1ccc2cc(C(=O)NC(=O)c3ccccc3O)ccc2c1 the molecule record lists selectivity ratio as 11

For CCc1ccc(C(=O)n2c(=O)oc3ccccc3c2=O)cc1 the molecule record lists selectivity ratio as 3

For O=C(NC(=O)c1ccccc1O)c1ccc2c(c1)OCO2 the molecule record lists selectivity ratio as 0.86

For CCc1ccc(C(=O)NC(=S)c2ccccc2O)cc1 the molecule record lists selectivity ratio as 1.7

----------
Exercise: for every item that follows, state its recorded IC50.
- Test system: Plasmodium falciparum
- experiment: Antimalarial activity against chloroquine and pyrimethamine-resistant Plasmodium falciparum […] assessed as [3H]-hypoxanthine incorporation after 48 hrs by liquid scintillation counting
- Format: functional, organism-based
Reply numerically in µg/mL, unit not repeated.

For CN(C)c1ccc(C(=O)NC(=O)c2ccccc2O)cc1 the compound record lists IC50 as 0.49

For O=C(NC(=O)c1ccccc1O)c1ccc2c(c1)OCO2 the compound record lists IC50 as 4.2

For O=C(NC(=O)c1ccccc1O)c1ccc(OCc2ccccc2)cc1 the compound record lists IC50 as 4.1

For CC(C)(C)c1ccc(C(=O)NC(=O)c2ccccc2O)cc1 the compound record lists IC50 as 0.029

For COC(=O)c1ccc(C(=O)NC(=O)c2ccccc2O)cc1 the compound record lists IC50 as 2.9

For O=C(NC(=O)c1ccccc1O)c1ccc(C(F)(F)F)cc1 the compound record lists IC50 as 3.8

For O=C(NC(=O)c1ccccc1O)c1cccc(CCl)c1 the compound record lists IC50 as 4.4

For CCc1ccc(NC(=O)Nc2ccccc2O)cc1 the compound record lists IC50 as 2.1

For CCc1ccc(C(=O)Nc2n[nH]c3ccccc23)cc1 the compound record lists IC50 as 8.5

For CCN(CC)c1ccc(C(=O)NC(=O)c2ccccc2O)cc1 the compound record lists IC50 as 0.005

For O=C(NC(=O)C1CCCCC1)c1ccccc1O the compound record lists IC50 as 13

For O=C(NC(=O)c1ccccc1O)c1ccc2ccccc2c1 the compound record lists IC50 as 0.22
